These measurements were taken from ChEMBL document CHEMBL1125729.

Field: logD. Provide a value for each of the compounds that follow.
test protocol: Partition coefficient (logD) (octanol/phosphate buffer)
Assay type: physicochemical
// print number alone

Prompt: Can you look up the measured logD of Cc1c(C)c2c(c(C)c1O)CCC(C)(C(=O)O)O2 (stereo not given) for me?
Response: -1.02

Prompt: Try the compound CC(=O)Oc1c(C)c(C)c2c(c1C)CCC(C)(CCN(C)C)O2 (stereo not given)
Response: 1.56

Prompt: Try the compound Cc1c(C)c2c(c(C)c1O)CCC(C)(CCN(C)C)O2 (stereo not given)
Response: 1.15

Prompt: Try the compound CC(=O)Oc1c(C)c(C)c2c(c1C)CCC(C)(CC[N+](C)(C)C)O2 (stereo not given)
Response: -0.18

Prompt: Try the compound Cc1c(C)c2c(c(C)c1O)CCC(C)(CC[N+](C)(C)C)O2 (stereo not given)
Response: -0.6
